The reported measurements were obtained from ChEMBL document CHEMBL3352576.

Test system: A549
Experiment: Antiproliferative activity against human A549 cells assessed as inhibition of cell proliferation by CCK8 assay
Format: functional, cell-based
Recorded metric: IC50 (µM)
Answers are plain numbers, in µM.

Known results for compounds:
{"Compound": "Cc1ccccc1-c1nnc(CSc2nnc(/N=C/c3ccccc3O)s2)o1", "IC50 (µM)": 7.85}
{"Compound": "COc1cccc(-c2nnc(CSc3nnc(/N=C/c4ccccc4O)s3)o2)c1", "IC50 (µM)": 8.82}

Now examine the next entry.
The compound identified as O=c1[nH]cc(F)c(=O)[nH]1 [FLUOROURACIL] registered its IC50 at 8.13
